# credit: ChEMBL document CHEMBL1201862

- Tested on: CCRF-CEM
- method-summary: NCI tumour cell line growth inhibition, 48 h
Activity calls are given as the source filed them. Cut-off read from the data, not from the text of the source: active = GI50 up to about 1.1 µM and inactive = higher. Starred links: 1 amine or outer side, 2 acyl side, 3 side chain; linkers in the order of their positions; H or OH if unused. Positions of bridges follow the written chain, without caps; N, C: chain ends. Where a SMILES comes first, the peptide text is derived from it. Non-standard residues stand in square brackets, D forms with d. Residues, ends and D or L forms follow the SMILES beside them. [ ]: non-standard residue; d: D form. ξ: configuration not given here. *: point of attachment. γ4hArg(2R,3R-(OH)2) = N=C(N)NCCC[C@H](N[*:1])[C@@H](O)[C@@H](O)C(=O)[*:2]; Gln(3S,4R-Me2) = C[C@H]([C@H](N)C(=O)O)[C@@H](C)C(N)=O; X50 = CC(C)C[C@H](C)[C@@H](O)[C@@H](C)C(=O)*; X51 = COC(c1ccc(O)cc1)C(N[*:1])C(=O)[*:2]; ξThz(5,5-Me2) = CC1(C)SCNC1C(=O)O; NMeQ = CN[C@@H](CCC(N)=O)C(=O)O; Thr(3ξ) = CC(O)[C@H](N)C(=O)O; NMeA = CN[C@@H](C)C(=O)O
// one of yes (1) = active, no (0) = inactive, no free text

Below are worked cases with known answers.
Incoming: Record request — test call for COC(c1ccc(O)cc1)C1NC(=O)[C@H](CCC(N)=O)N(C)C(=O)[C@H](CC(C)C)NC(=O)[C@@H](CCCN=C(N)N)NC(=O)[C@H](C(C)O)NC(=O)[C@@H](NC(=O)[C@@H](NC(=O)[C@H](O)[C@H](O)[C@H](CCCN=C(N)N)NC(=O)[C@H](C)NC(=O)[C@H](C)[C@H](O)[C@@H](C)CC(C)C)[C@@H](C)[C@@H](C)C(N)=O)[C@@H](C)OC(=O)[C@H](C)N(C)C1=O (stereo partly drawn) (X50-A[γ4hArg(2R,3R-(OH)2)][Gln(3S,4R-Me2)]T[Thr(3ξ)][dR]L[NMeQ][X51][NMeA]; ester 4-C)
Outgoing: yes (1)

Incoming: Record request — test call for COC(=O)C(CCC(=O)CCl)N1C(=O)c2ccccc2C1=O (stereo not drawn)
Outgoing: no (0)

Incoming: Record request — test call for Cc1cc(NS(=O)(=O)c2ccc(Nc3c4ccccc4nc4c(C(=O)NC(CO)(CO)CO)cccc34)cc2)no1
Outgoing: no (0)

Incoming: Record request — test call for Nc1ncnc2c1ncn2CCOC(c1ccccc1)P(=O)(O)O (stereo not drawn)
Outgoing: no (0)

Incoming: Record request — test call for O=C1C2CCCC2N1Cc1ccccc1 (stereo not drawn)
Outgoing: no (0)

More entries:
Incoming: Record request — test call for COc1cc2c(cc1Oc1c(Oc3c(O)c(OC)cc4c3C(CC(C)C)N(C)CC4)c(OC)cc3c1C(CC(C)C)N(C)CC3)C(CC(C)C)N(C)CC2 (stereo not drawn)
Outgoing: yes (1)

Incoming: Record request — test call for COc1c(C(=O)O)cccc1-c1cccc(C(=O)NCCN(CCNC(=O)c2cccc(-c3cccc(C(=O)O)c3OC)c2OC)CCNC(=O)c2cccc(-c3cccc(C(=O)O)c3OC)c2OC)c1OC
Outgoing: no (0)

Incoming: Record request — test call for C/C=C/C=C/C1=NN(c2cccc(S(=O)(=O)O)c2)C2(C1)SCC(=O)N2c1nc2ccccc2s1 (stereo not drawn)
Outgoing: no (0)

Incoming: Record request — test call for CNC(=O)C(C)NC(=O)C(Cc1ccccc1)NC(=O)OC(C)(C)C (stereo not drawn)
Outgoing: no (0)

Incoming: Record request — test call for CC[C@H](C)C1=C(OC(C)=O)[N@+]2([O-])Oc3ccc(-c4c(OC(C)=O)c(OC(C)=O)c(-c5ccc(OC(C)=O)cc5)c(OC(C)=O)c4OC(C)=O)cc3O[C@]2([C@@H](C)CC)C(=O)N1OC(C)=O
Outgoing: yes (1)

Incoming: Record request — test call for CNC(=S)NC1CCCCC1NC(=S)NC (stereo not drawn)
Outgoing: no (0)

Incoming: Record request — test call for CSCC[C@H](NC(=O)[C@H](CC(C)C)NC(=O)[C@H](Cc1c[nH]cn1)NC(=O)CNC(=O)C1N(C(=O)[C@@H](C)NC(=O)[C@H](Cc2c[nH]c3ccccc23)NC(=O)[C@H](CCC(N)=O)NC(=O)[C@@H](N)CC(N)=O)CSC1(C)C)C(N)=O (stereo partly drawn) (H-NQW[dA][ξThz(5,5-Me2)]GHLM-NH2)
Outgoing: no (0)

Incoming: Record request — test call for CCN(CC)C(=O)c1c(Cl)cc(N(CC)CC)oc1=O
Outgoing: no (0)
